# testMethodNotes: yeast display, Sf9 membrane polyspecificity reagent, FACS + sequencing; frameworks hold sequencing errors
metricName: polyreactivity (PSR sort gate)

Examples with their reported polyreactivity (PSR sort gate) follow.
>  <seqText>
QVQLVESGGGLVQAGGSLRLSCAASGSIFGTNAMGWYRQAPGKERELVAAIDGGSTTYYADSVKGRFTISRDNAKNTVYLQMNSLKPEDTAVYYCAADGTRYLNYEGYAGYEYWGQGTQGTVSS

>  <polyreactivity (PSR sort gate)>
low polyreactivity

$$$$
>  <seqText>
QVQLVESGGGLVQAGGSLRLSCAASGSTLRRYAMGWYRQAPGTERELVASNSRGGTSTYYADSVKGRFTISRDNAKNTVYLQMKSLKPEDTAVYYCAAATPYRYNYWGQGTQVTVSS

>  <polyreactivity (PSR sort gate)>
high polyreactivity

$$$$
>  <seqText>
QVQLVESGGGLVQAGGSLRLSCAASGLIFQVYTMGWYRQAPGKERELVAAISWDAGSTYYADSVKGRFTISRDNAKNTVYLLMNSLKPEDTAVYYCATTQYTTYGRRYYWGQGTQVTVSS

>  <polyreactivity (PSR sort gate)>
high polyreactivity

$$$$
>  <seqText>
HVQLVESGGGLVQAGGSLRLSCAASGRIFGAYAMGWYRQAPGKEREFVAAITSRGGNTYYADSVKGRFTISRDNAKNTVYLQMNSLIPEDTAVYYCAARHDKRRQYYVGQSAFDYWGQGTQVTVSS

>  <polyreactivity (PSR sort gate)>
low polyreactivity

$$$$

Enquiry: Please supply the value of reported polyreactivity (PSR sort gate) for the item QVQLVESGGGLVQAGGSLRLSCAASGRIFGRNAMGWYRQAPGKERELVAAISRRSVSTYYADSVKGRFTISRDIAKNTVYLQMNSLKPEETAVYYCAARKSLTTPYGYWGQGTQVTVSS
Return: high polyreactivity

---

# testMethodNotes: yeast display, Sf9 membrane polyspecificity reagent, FACS + sequencing; frameworks hold sequencing errors
metricName: polyreactivity (PSR sort gate)

Some sequences with known polyreactivity (PSR sort gate) results, for comparison:
>  <seqText>
QVQLVESGGCLVQAGGSLRLSCAASGNTFTSYAMGWYRQAPGKERELVAAISASGSSTYYADSVKGRFTISRDNAKNTVYLQMNSLKPEDTAVYYCNAVKYRVESSYDYWGQGTQVTVSS

>  <metricName>
polyreactivity (PSR sort gate)

>  <reportedMeasurement>
low polyreactivity

$$$$
>  <seqText>
QVQLVESGGGLVQAGGSLRLSCAASGRIFSKYAMGWYRQAPGKARELVAAISTSTGSTYYADSVKGRFTISRDNAKNTVYLQMNSLKPEDTAVYYCAAVGSRWFSQTWRDYWGQGTQVTVSS

>  <metricName>
polyreactivity (PSR sort gate)

>  <reportedMeasurement>
high polyreactivity

$$$$
>  <seqText>
QVQLVESGGGLVQAGGSLRLSCAASGITFDTYAMGWYRQAPGKERELVAAISKSGGSTYYADSVKGRFTISRDNAKNTVYLQMNSLKPEDTAVYYCAKDAGSRTVREFGYWGQGTQVTVSS

>  <metricName>
polyreactivity (PSR sort gate)

>  <reportedMeasurement>
high polyreactivity

$$$$
>  <seqText>
QVQLVESGAGLVQAGGSLRLSCAASGFIFYYYAMGRYRPAPGKERELVAAIDSSGGDTYFADSVKGRFSISRDHAKNTVYLQMNSLKPEDTAVYYCNARQRLISLYGNRLTYGYWGQGTQVTVSS

>  <metricName>
polyreactivity (PSR sort gate)

>  <reportedMeasurement>
high polyreactivity

$$$$
>  <seqText>
QVQLVESGGGLVQAGGSLRLTCDASGSSFIFNAMGWSRQAHGIEMELVAGITRRVDSTFYADSVKGRFTISRDNAKNTVYLQMTSLKPEDTGVFFFAARQYSGVKYNYWGQGTEVTVSS

>  <metricName>
polyreactivity (PSR sort gate)

>  <reportedMeasurement>
high polyreactivity

$$$$

Enquiry: Write down polyreactivity (PSR sort gate) measured for item QVQLVESGRGLVQAGGSHRLSCAASGSTITYYTMGWYREAPGKERELVAAISGSGGRTYYADSVKGRFTISRDNAKNTVYLQMNSLKPEDTAVYYCAAVYQLSRYDYWGQGTQVTVSS
Return: high polyreactivity

Enquiry: Respond only with polyreactivity (PSR sort gate) recorded for QVQLVESGGGLVQAGGSLRLSCAASGFISSENAMGWYRQAPGKERELVAATSSGGSTNYADSVKGRFTISRDNAKNTVYLQMNSLKPEDTAVYYCAALFPKNLQKVGRYDYWGQGTQVTVSS
Return: low polyreactivity

Enquiry: Query polyreactivity (PSR sort gate) for QVQLVESGGGLVQAGGSLRLSCAASGSTFSVYGMGWYRQGPGKERELVAAISGYGSRRYYADSLKGRFTISRDNAKNTVYLQMNSLKPEDTAVYYCAAVRRLLQGRTMYYWGQGTQVTVSS
Return: high polyreactivity

Enquiry: Using the record for QVQLVESGGGLVQAGGSLRLSCAASGSILWSYAMGWYRQAPGKERELVAAIRSGGSTYYADSVKGRFTISRDNAKNTVYLQMNSLKPEDTAVYYCNATYAPLFEYDYWGQGTQVTVSS , state its measured polyreactivity (PSR sort gate).
Return: low polyreactivity

Enquiry: Determine from records and report polyreactivity (PSR sort gate) for QVQLVESGGGLVQAGGSLRLSCAASGSIFTHNAMGWYRQAPGKERELVAAISTSGGRTYYADSVKGRFTISRDNAKNTVYLQMNSLKPEDTAVYYCAKLSTARYDYWGQGTQVTVSS
Return: high polyreactivity

Enquiry: Provide only the value of recorded polyreactivity (PSR sort gate) for QVQLVESGGGLVQAGGSLRLSCAASGRTFQFYVMGWYRQAPGKERELLASIRSGGSTNYADSVKGRFTISRDNAKNTVYLQMNSLKPEDTAVYYCNADAYGTPEFTSYAVRYDYWGQGTQVTVSS
Return: low polyreactivity

Enquiry: In one line, give reported polyreactivity (PSR sort gate) of the entry QVQLVESGGGLDQAGGSLRLSCAASGRIFRYYTMGWYRQAPGKERELVAAISTSDDSTNYADSVKGRFTISRDNAKNTVYLQMNSLKPEDTAVYYCAADQSRVGSYQDYDYWGQGTQVTVSS .
Return: low polyreactivity

Enquiry: Write down polyreactivity (PSR sort gate) measured for item QVQLVESGGGLVQAGGSLRLSCAASGGTFPQYAMGWYRQAPGKEREFVADITSRGGTTYYADSVKGRFTISRDNAKNTVYLQMNSLKPEDTAVYYCAAVNVAYSWYDTGYDYWGQGTQVTVSS
Return: low polyreactivity

Enquiry: Using known records, supply polyreactivity (PSR sort gate) for QVQLVESGGGLVQAGGSLRLICAASGSIFLNYAMGWYRQAPGKERELVASLRRIGGRTFYADSVKGSFTISRDNAKNTVYLQMNSLKPEDTAVYYCAAEYYYGLTVEYWGQGTQVTVSS
Return: high polyreactivity

Enquiry: Answer with the recorded polyreactivity (PSR sort gate) of QVQLVESGGGLVQAGGSLRLSCAPSGRTFGVYAMGWYRQAPGKERELVATISFNVASTYADSVKGRFTISRDNAKNTVYLQMNSLKPEDTAVYYCAVTAVRPLPLDSGYDYWGQGTQVTVSS only.
Return: low polyreactivity

Enquiry: Given QVQLVESGGGLVQAGGSLRLSCAASGRIFYIYAMGWYRQAPGKERELVAAISSGGTTNYADSVKGRFTISRDNAKNTVYLQMNSLKPEDTSVDYCNAVRGEKMGYWGQGTQVTVSS , respond with its polyreactivity (PSR sort gate).
Return: high polyreactivity

Enquiry: Quick one: give measured polyreactivity (PSR sort gate) for QVQLVESGGGLVQAGGSLRLSCPASGSIIYYAMGWSRQPPGKEREFVAAITKSGGSTYYADSVKGRFTFSRDNAKNTVYLQMNSLKPEDTAVYYCSARGTWAGFYYWGQGTQVTVSS
Return: high polyreactivity

Enquiry: Specify polyreactivity (PSR sort gate) for QVQLEESGGGLVQAGGSLRLSCAASGFIFRYYAMGWYRQAPGKERELVAAISWSGGSTYYADSVKGRFTISRDNAKNTVYLQMNSLKPEETAVDYGAADRYAILFYAEDYWGQGTQVTVSS and stop.
Return: low polyreactivity

Enquiry: State, in one line, measured polyreactivity (PSR sort gate) of QVQLVESGGGLVQAGGSLRLSCAASGSIFGLYTMGWYRQAPGKERELVAAISGGGGSTYYADSVKGRFTISRDNAKNTVYLQMNSLKPEDTAVYYCAADLELSEWYDYWGQGTQVTVSS
Return: low polyreactivity

Enquiry: Identify measured polyreactivity (PSR sort gate) associated with QVQLVESGGGLVQAGGSLRLSCAASGFTFSFYTMGWYRQAPGKERELVAAISRRGGSTYYADSVKGRFTISRDNAKNTVYLQMNSLKPEDTAVYYCATDHIPSVGVDYWGQGTQVTVSS
Return: high polyreactivity

Enquiry: Quickly give me recorded polyreactivity (PSR sort gate) for QVQLVESGGGLVQAGGSLRLICAASGSIFKIYAMGWYRQAPGKERELVARITRRGGRTNYADSVKGRFTISRDNAKNTVYLQINSLKPEDTAVYYCAATVYPSVYGENHYGYWGQGTQVTVSS
Return: high polyreactivity
